quantity_kind: logP
Number, no unit, nothing else.

Some solved entries appear below for comparison.
> print(dat)
                         substance.smiles  reported.result
1                         Oc1cccc2cccnc12             2.02
2                       Cc1ccccc1OCC(=O)O             1.98
3                    c1cc2c3c(cccc3c1)CC2             3.92
4  O=[N+]([O-])c1cc[n+]([O-])c2c(F)cccc12                1
5  CN1C(=O)CC(=O)N(c2ccccc2)c2cc(Cl)ccc21             2.12

Query: Output measured logP for this item: CCOC(=O)c1ccc(N)cc1
Reply: 1.86

Query: Output measured logP for this item: CNC(=O)Oc1cccc(C)c1
Reply: 1.7

Query: Output measured logP for this item: NNC(=O)c1ccccc1
Reply: 0.19

Query: Output measured logP for this item: O=C(O)c1cc([N+](=O)[O-])ccc1O
Reply: 2.34

Query: Output measured logP for this item: O=[N+]([O-])c1ccccc1
Reply: 1.85
